Listed next: entries and their corresponding IC50.
Tested on: isolated rat aorta
Assay: Anticalcium activity: antagonism of KCl-mediated contraction of isolated rat aorta
Settings: KCl 5×10^-2 M.l^-1 contraction, isolated rat thoracic aorta ring
Kindly provide the numeric value in nM only, without the unit symbol.

- compound: "COC(=O)C1=C(C)NC(C)=C(C(=O)O[C@@H]2CCCN(CCCCC(=O)c3cccs3)C2)[C@H]1c1cccc([N+](=O)[O-])c1 [Example 1]"
  unitOfMeasurement: "nM"
  IC50: 130

Value wanted: IC50 (isolated rat aorta) of entry COC(=O)C1=C(C)NC(C)=C(C(=O)O[C@@H]2CCCN(CCCCC(=O)c3ccc[nH]3)C2)[C@H]1c1cccc([N+](=O)[O-])c1 [Example 3]
160

###

Test system: anaesthetized dogs
Assay: Therapeutic index: minimum arrhythmogenic dose / dose active on the coronary output, anaesthetized dogs
Assay type: in vivo, dog
Set-up: unit: µg/kg
Conditions: anaesthetized dogs, intravenous route
measuredEndpoint: minimum arrhythmogenic dose
Form: value (number only, do not type unit).

Consider the worked cases shown below.
- compound: "COC(=O)C1=C(C)NC(C)=C(C(=O)O[C@@H]2CCN(CCCC(=O)c3c(OC)cc(OC)cc3OC)C2)[C@H]1c1cccc([N+](=O)[O-])c1 [Example B, reference compound]"
  minimum arrhythmogenic dose: 640
- compound: "COC(=O)C1=C(C)NC(C)=C(C(=O)O[C@@H]2CCCN(CCCC(=O)c3cccs3)C2)[C@H]1c1cccc([N+](=O)[O-])c1 [Example A, reference compound]"
  minimum arrhythmogenic dose: 640
- compound: "COC(=O)C1=C(C)NC(C)=C(C(=O)O[C@@H]2CCCN(CCCCC(=O)c3ccc[nH]3)C2)[C@H]1c1cccc([N+](=O)[O-])c1 [Example 3]"
  minimum arrhythmogenic dose: 640
- compound: "COC(=O)C1=C(C)NC(C)=C(C(=O)O[C@@H]2CCCN(CCCCC(=O)c3cccs3)C2)[C@H]1c1cccc([N+](=O)[O-])c1 [Example 1]"
  minimum arrhythmogenic dose: 640

Here is the next item to consider.
Given COC(=O)C1=C(C)NC(C)=C(C(=O)O[C@@H]2CCN(CCCCC(=O)c3c(OC)cc(OC)cc3OC)C2)[C@H]1c1cccc([N+](=O)[O-])c1 [Example 2] , state its recorded minimum arrhythmogenic dose.
640

###

Reported selectivity ratio is given for each of the following compounds.
Test: Therapeutic index: minimum arrhythmogenic dose / dose active on the coronary output, anaesthetized dogs
Assay type: in vivo, dog
Conditions: dog, in vivo; ratio, anaesthetized dogs, intravenous route; read-out: Arrhythmogenic dose/dose which is active on the coronary output (therapeutic index)
Reply with the value as a number alone.

Reported selectivity ratio for COC(=O)C1=C(C)NC(C)=C(C(=O)O[C@@H]2CCCN(CCCCC(=O)c3cccs3)C2)[C@H]1c1cccc([N+](=O)[O-])c1 [Example 1] : what is it?
32

State the recorded selectivity ratio for this entry: COC(=O)C1=C(C)NC(C)=C(C(=O)O[C@@H]2CCCN(CCCCC(=O)c3ccc[nH]3)C2)[C@H]1c1cccc([N+](=O)[O-])c1 [Example 3]
32

Looking for the measured selectivity ratio of COC(=O)C1=C(C)NC(C)=C(C(=O)O[C@@H]2CCN(CCCCC(=O)c3c(OC)cc(OC)cc3OC)C2)[C@H]1c1cccc([N+](=O)[O-])c1 [Example 2] , can you help?
16

So what does the record say about selectivity ratio for COC(=O)C1=C(C)NC(C)=C(C(=O)O[C@@H]2CCCN(CCCC(=O)c3cccs3)C2)[C@H]1c1cccc([N+](=O)[O-])c1 [Example A, reference compound] ?
1

Bench note: what selectivity ratio did COC(=O)C1=C(C)NC(C)=C(C(=O)O[C@@H]2CCN(CCCC(=O)c3c(OC)cc(OC)cc3OC)C2)[C@H]1c1cccc([N+](=O)[O-])c1 [Example B, reference compound] show?
1
